Recorded residual activity for the following compounds
# tgt: High affinity nerve growth factor receptor (Homo sapiens)
# test conditions: at 10 µM

Request: Param item = O=[N+]([O-])/C=C/c1ccc2c(c1)OCO2 ; retrieve measured residual activity.
Result: 116%

* * *

Recorded residual activity for the following molecules
# tgt: Protein kinase C iota type (Homo sapiens)
# test conditions: at 1 µM
Could you give me the number in %? Just the number is fine.

molecule: O=C1Nc2ccc3ncsc3c2/C1=C/c1c[nH]cn1
residual activity / %: 85
//
molecule: C[S+]([O-])c1ccc(-c2nc(-c3ccc(F)cc3)c(-c3ccncc3)[nH]2)cc1 (stereo unspecified)
residual activity / %: 105
//
molecule: COC(=O)[C@@]1(O)C[C@H]2O[C@]1(C)n1c3ccccc3c3c4c(c5c6ccccc6n2c5c31)C(=O)NC4
residual activity / %: 107
//
molecule: CCc1nc(-c2ccc(OC)cc2)[nH]c1-c1ccncc1
residual activity / %: 107
//
molecule: COc1cc2ncnc(Nc3ccc(OCc4ccccc4)cc3)c2cc1OC
residual activity / %: 95

Turning now to a further molecule:
Request: Param item = CC(C)(C)c1cc(C=C(C#N)C#N)cc(Br)c1O ; retrieve measured residual activity.
Result: 107

* * *

# tgt: RAC-gamma serine/threonine-protein kinase (Homo sapiens) (UniProt Q9Y243)
# Sequence (Q9Y243 whole entry): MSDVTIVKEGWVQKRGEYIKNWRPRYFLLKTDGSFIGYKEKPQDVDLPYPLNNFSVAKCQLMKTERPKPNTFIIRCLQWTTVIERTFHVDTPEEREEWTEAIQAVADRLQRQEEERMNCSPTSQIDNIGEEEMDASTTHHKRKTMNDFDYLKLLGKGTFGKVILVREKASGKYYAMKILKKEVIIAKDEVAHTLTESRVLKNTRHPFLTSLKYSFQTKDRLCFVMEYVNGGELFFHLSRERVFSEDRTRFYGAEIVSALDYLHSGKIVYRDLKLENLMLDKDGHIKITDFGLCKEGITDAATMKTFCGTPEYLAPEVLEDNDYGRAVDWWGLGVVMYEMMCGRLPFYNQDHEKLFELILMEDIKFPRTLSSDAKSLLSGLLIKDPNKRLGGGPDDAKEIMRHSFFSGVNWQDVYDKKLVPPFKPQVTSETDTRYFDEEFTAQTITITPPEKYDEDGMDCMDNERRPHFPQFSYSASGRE
# test conditions: at 10 µM
quantity name: residual activity (%)
Could you give me the number in %? Just the number is fine.

Recorded results for 3 molecules are shown here.
molecule: CC(C)(C)c1cc(C=C(C#N)C#N)cc(Br)c1O
unit of measurement: %
result: 97
//
molecule: N/C(=N\[N+](=O)[O-])N/N=C\c1ccc(-c2cccc([N+](=O)[O-])c2)o1
unit of measurement: %
result: 77
//
molecule: COc1ccc2c(c[n+](C)c3c4cc5c(cc4ccc23)OCO5)c1OC
unit of measurement: %
result: 63

Request: Param item = C[S+]([O-])c1ccc(-c2nc(-c3ccc(F)cc3)c(-c3ccncc3)[nH]2)cc1 (stereo not drawn) ; retrieve measured residual activity.
Result: 75

* * *

# tgt: Tyrosine-protein kinase Fer (Homo sapiens)
# test conditions: at 1 µM
quantity name: residual activity (%)
Could you give me the number in %? Just the number is fine.

Recorded results for 7 compounds are shown here.
compound: CCn1cnc2c(Nc3cccc(Cl)c3)nc(N[C@@H]3CCCC[C@@H]3N)nc21
tgt: Tyrosine-protein kinase Fer (Homo sapiens)
residual activity, %: 85

compound: O=c1[nH]c2ccccc2n1C1CCN(Cc2ccc(-c3nc4cc5[nH]cnc5cc4nc3-c3ccccc3)cc2)CC1
tgt: Tyrosine-protein kinase Fer (Homo sapiens)
residual activity, %: 112

compound: C[S+]([O-])c1ccc(-c2nc(-c3ccc(F)cc3)c(-c3ccncc3)[nH]2)cc1 (stereo not drawn)
tgt: Tyrosine-protein kinase Fer (Homo sapiens)
residual activity, %: 107

compound: O=C1NC(=O)c2c1c1c3ccccc3n3c1c1c2c2ccccc2n1C1CCC3O1
tgt: Tyrosine-protein kinase Fer (Homo sapiens)
residual activity, %: 33

compound: O=C1c2ccccc2-c2nc3nnnn3nc21
tgt: Tyrosine-protein kinase Fer (Homo sapiens)
residual activity, %: 112

compound: CCc1nc(-c2ccc(OC)cc2)[nH]c1-c1ccncc1
tgt: Tyrosine-protein kinase Fer (Homo sapiens)
residual activity, %: 104

compound: COC(=O)[C@@]1(O)C[C@H]2O[C@]1(C)n1c3ccccc3c3c4c(c5c6ccccc6n2c5c31)C(=O)NC4
tgt: Tyrosine-protein kinase Fer (Homo sapiens)
residual activity, %: 2

Turning now to a further compound:
Request: Param item = CC(C)(C)c1cc(C=C(C#N)C#N)cc(Br)c1O ; retrieve measured residual activity.
Result: 120

Recorded values, source ChEMBL document CHEMBL2218924.
